From: ChEMBL document CHEMBL4219061

# method: Therapeutic index, ratio of IC50 for human Huh-luc/neo-ET cells to EC50 for HCV genotype 1b con1
# Type: toxicity
# condition_description: Huh-luc/neo-ET cells (HCV genotype 1b con1), read-out: Ratio IC50/EC50
Reported selectivity ratio values for a set of molecules

molecule: COc1ccc2c3c(c4cc(OC)c(OC)cc4c2c1)C[C@H]1CNCCN1C3 (racemic)
selectivity ratio: 5.46
//
molecule: COc1ccc2c3c(c4cc(OC)c(OC)cc4c2c1)C[C@H]1CCOCN1C3 (racemic)
selectivity ratio: 1.54
//
molecule: COc1ccc2c3c(c4cc(OC)c(OC)cc4c2c1)C[C@H]1C[C@H](O)CCN1C3
selectivity ratio: 3.57
//
molecule: COc1ccc2c3c(c4cc(OC)c(OC)cc4c2c1)C[C@H]1C[C@@H](O)CCN1C3 (racemic)
selectivity ratio: 8.59
//
molecule: COc1ccc2c3c(c4cc(OC)c(OC)cc4c2c1)C[C@H]1CCN(N(C)C)CN1C3 (racemic)
selectivity ratio: 1.07
//
molecule: COc1ccc2c3c(c4cc(OC)c(OC)cc4c2c1)C[C@H]1CN(C2CC2)CN1C3 (racemic)
selectivity ratio: 1.33
//
molecule: COc1ccc2c3c(c4cc(OC)c(OC)cc4c2c1)C[C@H]1CC[C@@H](O)CN1C3 (racemic)
selectivity ratio: 7.1
//
molecule: COc1ccc2c3c(c4cc(OC)c(OC)cc4c2c1)C[C@H]1CCCCCN1C3 (racemic)
selectivity ratio: 5.75

---

# Tested on: Hepatitis B virus
# method: Antiviral activity against HBV infected in human HepG2(2.2.15) cells assessed as inhibition of viral DNA level after 6 days by Southern blot analysis
# Format: functional
# condition_description: HepG2 2.2.15, 144 h
Reported EC10 values for a set of compounds

compound: COc1ccc2c3c(c4cc(OC)c(OC)cc4c2c1)C[C@H]1CC[C@@H](O)CN1C3 (racemic)
EC10: > 25 nM
//
compound: COc1ccc2c3c(c4cc(OC)c(OC)cc4c2c1)C[C@H]1CCCCN1C3
EC10: > 30 nM
//
compound: COc1cc2c3c(c4cc(OC)c(OC)cc4c2cc1OC)[C@H](O)[C@@H]1CCCN1C3
EC10: > 300 nM
//
compound: COc1ccc2c3c(c4cc(OC)c(OC)cc4c2c1)C[C@H]1CNCCN1C3 (racemic)
EC10: > 500 nM
//
compound: COc1ccc2c3c(c4cc(OC)c(OC)cc4c2c1)C[C@H]1C[C@@H](O)CCN1C3 (racemic)
EC10: > 26 nM
//
compound: COc1ccc2c3c(c4cc(OC)c(OC)cc4c2c1)C[C@H]1CCN(N(C)C)CN1C3 (racemic)
EC10: > 900 nM
//
compound: COc1ccc2c3c(c4cc(OC)c(OC)cc4c2c1)C[C@H]1C[C@H](O)CCN1C3
EC10: > 5.5 nM
//
compound: COc1ccc2c3c(c4cc(OC)c(OC)cc4c2c1)C[C@H]1CN(C2CC2)CN1C3 (racemic)
EC10: > 300 nM

---

# measurement_target: Heat shock cognate 71 kDa protein (Homo sapiens) (UniProt P11142)
# Sequence (P11142 2-646 limits assumed): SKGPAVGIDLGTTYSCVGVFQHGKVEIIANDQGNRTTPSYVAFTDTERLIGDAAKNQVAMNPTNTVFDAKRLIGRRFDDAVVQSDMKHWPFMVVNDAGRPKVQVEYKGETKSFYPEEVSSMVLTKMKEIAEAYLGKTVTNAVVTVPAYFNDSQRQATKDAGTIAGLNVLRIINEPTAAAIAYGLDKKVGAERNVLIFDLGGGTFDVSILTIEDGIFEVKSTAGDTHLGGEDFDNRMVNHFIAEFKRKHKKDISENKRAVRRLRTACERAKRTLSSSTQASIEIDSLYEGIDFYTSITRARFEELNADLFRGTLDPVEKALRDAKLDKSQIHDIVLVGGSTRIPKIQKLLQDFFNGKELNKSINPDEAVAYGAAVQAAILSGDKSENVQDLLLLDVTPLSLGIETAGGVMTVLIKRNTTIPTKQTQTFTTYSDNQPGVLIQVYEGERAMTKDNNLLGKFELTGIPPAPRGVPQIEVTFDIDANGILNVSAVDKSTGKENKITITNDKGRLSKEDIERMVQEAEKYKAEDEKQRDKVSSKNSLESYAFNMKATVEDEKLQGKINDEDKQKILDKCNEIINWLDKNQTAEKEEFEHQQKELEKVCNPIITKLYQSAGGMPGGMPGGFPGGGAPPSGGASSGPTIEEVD
# method: Displacement of biotinylated-rac-cryptopleurine from recombinant HSC70 (unknown origin) […] by Western blot analysis
Active and inactive are the calls of the source. The rule behind the calls is not given here.
outcome_measure: displacement activity (active/not active)

compound: COc1ccc2c3c(c4cc(OC)c(OC)cc4c2c1)C[C@H]1CC[C@@H](O)CN1C3 (racemic)
endpoint_value: inactive

compound: COc1ccc2c3c(c4cc(OC)c(OC)cc4c2c1)C[C@H]1C[C@@H](O)CCN1C3 (racemic)
endpoint_value: inactive

compound: COc1ccc2c3c(c4cc(OC)c(OC)cc4c2c1)C[C@H]1CC[C@H](O)CN1C3 (racemic)
endpoint_value: inactive

---

Reported EC10 values for a set of compounds
# Test system: Hepatitis B virus
# method: Antiviral activity against HBV infected in human HepG2(2.2.15) cells assessed as inhibition of viral DNA level after 6 days by Southern blot analysis
# Type: functional
# condition_description: HepG2 2.2.15, 144 h
outcome_measure: EC10

compound: COc1ccc2c3c(c4cc(OC)c(OC)cc4c2c1)C[C@H]1CC[C@H](O)CN1C3 (racemic)
measurement_target: Hepatitis B virus
endpoint_value: > 3000 nM
--
compound: COc1ccc2c3c(c4cc(OC)c(OC)cc4c2c1)C[C@H]1CCCCCN1C3 (racemic)
measurement_target: Hepatitis B virus
endpoint_value: > 1000 nM
--
compound: COc1ccc2c3c(c4cc(OC)c(OC)cc4c2c1)C[C@H]1CCOCN1C3 (racemic)
measurement_target: Hepatitis B virus
endpoint_value: > 500 nM
--
compound: COc1ccc2c3c(c4cc(OC)c(OC)cc4c2c1)C[C@H]1CCOCCN1C3 (racemic)
measurement_target: Hepatitis B virus
endpoint_value: > 300 nM
